Kindly state pIC50 for each of the entries shown.
System: HDAC2 (Homo sapiens (Human))
Method description: HDAC2 enzymatic inhibition assay in SH-SY5Y cell lysate (HDAC-Glo 2)
Assay type: cell-based
Measurement conditions: SH-SY5Y cells, five hours incubation
pIC50: −log10 of the molar value.

{"Molecule": "Cc1nc2c(s1)CN(C(=O)Nc1nc(-c3ccc(F)cc3F)ccc1N)C2 [Compound 3]", "pIC50": "6.00 to 7.00"}
{"Molecule": "Cc1ncc2c(n1)CN(C(=O)Nc1nc(-c3ccc(F)cc3F)ccc1N)C2 [Compound 5]", "pIC50": "5.82 to 6.00"}

Please give pIC50 for each item listed below.
1. COCCn1cc2c(n1)CN(C(=O)Nc1nc(-c3ccccc3F)ccc1N)C2 [Compound 8]
2. COCCn1cc2c(n1)CN(C(=O)Nc1nc(-c3ccc(Cl)s3)ccc1N)C2 [Compound 6]
3. CCn1cc2c(n1)CN(C(=O)Nc1nc(-c3ccc(F)cc3F)ccc1N)C2 [Compound 10]
4. Cc1cc2c(cn1)CN(C(=O)Nc1nc(-c3ccc(F)cc3F)ccc1N)C2 [Compound 1]

result:
["6.00 to 7.00", "< 5.82", "6.00 to 7.00", "6.00 to 7.00"]

* * *

Kindly state Erythroid % control remaining @ 10 uM dose for each of the entries shown.
System: human erythroid (CFU-E, BFU-E) progenitors
Method description: Erythroid CFU assay (human bone marrow clonogenic progenitors)
Assay type: cell-based
Measurement conditions: 10 uM, 14 days in culture
Method: Clonogenic progenitors of human erythroid (CFU-E, BFU-E), granulocyte-monocyte (CFU-GM) and multipotential (CFU-GEMM) lineages were assessed in a semi-solid methylcellulose-based media formulation containing rhIL-3 (10 ng/mL), rhGM-SCF (10 ng/mL), rhSCF (50 ng/mL) and Epo (3 U/mL). […] On the day of the experiment, the compounds were dissolved in DMSO to a stock concentration of 10 mM. […] Additionally, 5-FU was evaluated at 1.0, 0.1 and 0.01 μg/mL. […]
Answers are plain numbers, in %.

Please give Erythroid % control remaining @ 10 uM dose for each item listed below.
1. CCc1ncc2c(n1)CN(C(=O)Nc1nc(-c3ccc(F)cc3F)ccc1N)C2 [Compound 7]
2. CCn1cc2c(n1)CN(C(=O)Nc1nc(-c3ccc(F)cc3F)ccc1N)C2 [Compound 10]
3. Cc1nc2c(s1)CN(C(=O)Nc1nc(-c3ccc(F)cc3F)ccc1N)C2 [Compound 3]
4. Nc1ccc(-c2ccc(F)cc2)nc1NC(=O)N1Cc2cc(CN3CC(F)C3)cnc2C1 [Comparator 7, reference compound]
5. Nc1ccc(-c2ccc(F)cc2F)nc1NC(=O)N1Cc2cnc(CN3CC(F)C3)cc2C1 [Compound 4]
6. Cc1cc2c(cn1)CN(C(=O)Nc1nc(-c3ccc(F)cc3F)ccc1N)C2 [Compound 1]

result:
[69, 38, 89, 35, 62, 53]

* * *

System: HDAC2 (Homo sapiens (Human), UniProt Q92769)
Sequence (Q92769 whole entry): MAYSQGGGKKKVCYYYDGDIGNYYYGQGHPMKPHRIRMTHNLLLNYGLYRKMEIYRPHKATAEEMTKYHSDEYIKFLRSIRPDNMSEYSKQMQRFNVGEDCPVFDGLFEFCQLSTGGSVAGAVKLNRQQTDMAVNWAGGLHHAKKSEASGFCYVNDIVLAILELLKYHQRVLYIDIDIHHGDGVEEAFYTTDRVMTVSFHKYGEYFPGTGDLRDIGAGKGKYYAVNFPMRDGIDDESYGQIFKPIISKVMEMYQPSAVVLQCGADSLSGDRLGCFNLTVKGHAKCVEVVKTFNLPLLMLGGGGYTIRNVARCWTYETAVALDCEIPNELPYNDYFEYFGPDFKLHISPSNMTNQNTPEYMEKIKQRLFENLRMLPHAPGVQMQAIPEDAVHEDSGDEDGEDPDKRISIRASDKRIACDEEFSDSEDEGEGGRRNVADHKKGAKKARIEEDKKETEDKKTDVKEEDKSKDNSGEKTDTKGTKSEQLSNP
Method description: HDAC2 enzymatic assay (deacetylation of peptide substrate, Caliper LabChip)
Assay type: biochemical
Measurement conditions: reaction time 17 hours, 25° C.
Kindly state IC50 for each of the entries shown.

Sample answers from the record:
{"Smiles entry": "CCc1ncc2c(n1)CN(C(=O)Nc1nc(-c3ccc(F)cc3F)ccc1N)C2", "Value reported": "500 to 5000 nM"}
{"Smiles entry": "COCCn1cc2c(n1)CN(C(=O)Nc1nc(-c3ccccc3F)ccc1N)C2", "Value reported": "500 to 5000 nM"}
{"Smiles entry": "CCn1cc2c(n1)CN(C(=O)Nc1nc(-c3ccc(F)cc3F)ccc1N)C2", "Value reported": "100 to 500 nM"}
{"Smiles entry": "Nc1ccc(-c2ccc(F)cc2F)nc1NC(=O)N1Cc2cnc(CN3CC(F)C3)cc2C1", "Value reported": "500 to 5000 nM"}

Please give IC50 for each item listed below.
1. Cc1nc2c(s1)CN(C(=O)Nc1nc(-c3ccc(F)cc3F)ccc1N)C2
2. COCc1cc2c(cn1)CN(C(=O)Nc1nc(-c3ccccc3F)ccc1N)C2
3. Cc1ncc2c(n1)CN(C(=O)Nc1nc(-c3ccc(F)cc3F)ccc1N)C2
4. COCc1ccc2c(n1)CN(C(=O)Nc1nc(-c3ccc(F)cc3F)ccc1N)C2
5. COCCn1cc2c(n1)CN(C(=O)Nc1nc(-c3ccc(Cl)s3)ccc1N)C2
6. Cc1cc2c(cn1)CN(C(=O)Nc1nc(-c3ccc(F)cc3F)ccc1N)C2

result:
1: 500 to 5000 nM; 2: 500 to 5000 nM; 3: 500 to 5000 nM; 4: 500 to 5000 nM; 5: 500 to 5000 nM; 6: 100 to 500 nM

* * *

Test system: human erythroid (CFU-E, BFU-E) progenitors
Method description: Erythroid CFU assay (human bone marrow clonogenic progenitors)
Format: cell-based
Measurement conditions: 10 uM, 14 days in culture
Endpoint: Erythroid % control remaining @ 10 uM dose (%)
Numbers only, in %.

Sample answers from the record:
{"Compound": "CCc1ncc2c(n1)CN(C(=O)Nc1nc(-c3ccc(F)cc3)ccc1N)C2 [Comparator 9, reference compound]", "Value reported": 60}
{"Compound": "COCc1ccc2c(n1)CN(C(=O)Nc1nc(-c3ccc(F)cc3)ccc1N)C2 [Comparator 8, reference compound]", "Value reported": 33}
{"Compound": "COCCn1cc2c(n1)CN(C(=O)Nc1nc(-c3cccs3)ccc1N)C2 [Comparator 3, reference compound]", "Value reported": 18}
{"Compound": "COCCn1cc2c(n1)CN(C(=O)Nc1nc(-c3ccc(Cl)s3)ccc1N)C2", "Value reported": 69}
{"Compound": "COCc1cc2c(cn1)CN(C(=O)Nc1nc(-c3ccc(F)cc3)ccc1N)C2 [Comparator 6, reference compound]", "Value reported": 22.9}

Please give Erythroid % control remaining @ 10 uM dose for each item listed below.
1. COCCn1cc2c(n1)CN(C(=O)Nc1nc(-c3ccccc3F)ccc1N)C2
2. Cc1cc2c(cn1)CN(C(=O)Nc1nc(-c3ccc(F)cc3)ccc1N)C2 [Comparator 5, reference compound]
3. COCc1cc2c(cn1)CN(C(=O)Nc1nc(-c3ccccc3F)ccc1N)C2

result:
1. 72
2. 25.7
3. 87

* * *

Test system: human myeloid (CFU-GM) progenitors
Method description: Myeloid CFU assay (human bone marrow clonogenic progenitors)
Assay type: cell-based
Measurement conditions: 14 days in culture
Endpoint: Myeloid % control remaining @ 10 uM dose (%)
Give bare numbers, in %.

Sample answers from the record:
{"Compound": "Cc1nc2c(s1)CN(C(=O)Nc1nc(-c3ccc(F)cc3F)ccc1N)C2 [Compound 3]", "Myeloid % control remaining @ 10 uM dose, %": 109}
{"Compound": "Cc1cc2c(cn1)CN(C(=O)Nc1nc(-c3ccc(F)cc3)ccc1N)C2 [Comparator 5, reference compound]", "Myeloid % control remaining @ 10 uM dose, %": 66.1}
{"Compound": "Cc1cc2c(cn1)CN(C(=O)Nc1nc(-c3ccc(F)cc3F)ccc1N)C2 [Compound 1]", "Myeloid % control remaining @ 10 uM dose, %": 100}

Now let's try a different one.
Record summary for Cc1nc2c(s1)CN(C(=O)Nc1nc(-c3ccc(F)cc3)ccc1N)C2 [Comparator 2, reference compound] : reported Myeloid % control remaining @ 10 uM dose = 103

* * *

Kindly state Myeloid % control remaining @ 10 uM dose for each of the entries shown.
Tested on: human myeloid (CFU-GM) progenitors
Method description: Myeloid CFU assay (human bone marrow clonogenic progenitors)
Assay type: cell-based
Measurement conditions: 14 days in culture
Method: Clonogenic progenitors of human erythroid (CFU-E, BFU-E), granulocyte-monocyte (CFU-GM) and multipotential (CFU-GEMM) lineages were assessed in a semi-solid methylcellulose-based media formulation containing rhIL-3 (10 ng/mL), rhGM-SCF (10 ng/mL), rhSCF (50 ng/mL) and Epo (3 U/mL). […] On the day of the experiment, the compounds were dissolved in DMSO to a stock concentration of 10 mM. […] Additionally, 5-FU was evaluated at 1.0, 0.1 and 0.01 μg/mL. […]
Answers are plain numbers, in %.

Sample answers from the record:
{"Compound": "COCCn1cc2c(n1)CN(C(=O)Nc1nc(-c3ccc(Cl)s3)ccc1N)C2 [Compound 6]", "Myeloid % control remaining @ 10 uM dose (%)": 82}
{"Compound": "COCCn1cc2c(n1)CN(C(=O)Nc1nc(-c3cccs3)ccc1N)C2 [Comparator 3, reference compound]", "Myeloid % control remaining @ 10 uM dose (%)": 9}
{"Compound": "CCc1ncc2c(n1)CN(C(=O)Nc1nc(-c3ccc(F)cc3F)ccc1N)C2 [Compound 7]", "Myeloid % control remaining @ 10 uM dose (%)": 105}
{"Compound": "CCn1cc2c(n1)CN(C(=O)Nc1nc(-c3ccc(F)cc3)ccc1N)C2 [Comparator 1, reference compound]", "Myeloid % control remaining @ 10 uM dose (%)": 34}
{"Compound": "CCn1cc2c(n1)CN(C(=O)Nc1nc(-c3ccc(F)cc3F)ccc1N)C2 [Compound 10]", "Myeloid % control remaining @ 10 uM dose (%)": 77}

Please give Myeloid % control remaining @ 10 uM dose for each item listed below.
1. COCc1ccc2c(n1)CN(C(=O)Nc1nc(-c3ccc(F)cc3F)ccc1N)C2 [Compound 2]
2. COCCn1cc2c(n1)CN(C(=O)Nc1nc(-c3ccc(F)cc3)ccc1N)C2 [Comparator 4, reference compound]
3. COCc1ccc2c(n1)CN(C(=O)Nc1nc(-c3ccc(F)cc3)ccc1N)C2 [Comparator 8, reference compound]
4. Nc1ccc(-c2ccc(F)cc2F)nc1NC(=O)N1Cc2cnc(CN3CC(F)C3)cc2C1 [Compound 4]
5. Cc1ncc2c(n1)CN(C(=O)Nc1nc(-c3ccc(F)cc3F)ccc1N)C2 [Compound 5]

result:
92
39
70
102
82

Please give Myeloid % control remaining @ 10 uM dose for each item listed below.
1. COCc1cc2c(cn1)CN(C(=O)Nc1nc(-c3ccccc3F)ccc1N)C2 [Compound 9]
2. COCc1cc2c(cn1)CN(C(=O)Nc1nc(-c3ccc(F)cc3)ccc1N)C2 [Comparator 6, reference compound]
3. CCc1ncc2c(n1)CN(C(=O)Nc1nc(-c3ccc(F)cc3)ccc1N)C2 [Comparator 9, reference compound]
4. Nc1ccc(-c2ccc(F)cc2)nc1NC(=O)N1Cc2cc(CN3CC(F)C3)cnc2C1 [Comparator 7, reference compound]
5. COCCn1cc2c(n1)CN(C(=O)Nc1nc(-c3ccccc3F)ccc1N)C2 [Compound 8]

result:
102
58.9
79
82
75
